target: YAP-TEAD interaction (full length human TEAD1-Gal4 fusion, full length YAP mutant S127A, S397A) (UniProt P04386+P28347); construct: The TEAD1 construct was prepared by cloning the full length human TEAD1 cDNA; expressed in transfected cells; host or cells: HEK293 GripTite 293 MSR (Invitrogen R795-07), transiently transfected with pSG5_CMV plasmids; assay: Cell-based TEAD-GAL4 transactivation assay (luciferase reporter, HEK293); details: HEK293 cells, compounds 0.1 μM to 30 μM, 24 h, concentration that inhibited the luciferase activity by 50%
Sequence (P04386+P28347 fused, stated change not applied): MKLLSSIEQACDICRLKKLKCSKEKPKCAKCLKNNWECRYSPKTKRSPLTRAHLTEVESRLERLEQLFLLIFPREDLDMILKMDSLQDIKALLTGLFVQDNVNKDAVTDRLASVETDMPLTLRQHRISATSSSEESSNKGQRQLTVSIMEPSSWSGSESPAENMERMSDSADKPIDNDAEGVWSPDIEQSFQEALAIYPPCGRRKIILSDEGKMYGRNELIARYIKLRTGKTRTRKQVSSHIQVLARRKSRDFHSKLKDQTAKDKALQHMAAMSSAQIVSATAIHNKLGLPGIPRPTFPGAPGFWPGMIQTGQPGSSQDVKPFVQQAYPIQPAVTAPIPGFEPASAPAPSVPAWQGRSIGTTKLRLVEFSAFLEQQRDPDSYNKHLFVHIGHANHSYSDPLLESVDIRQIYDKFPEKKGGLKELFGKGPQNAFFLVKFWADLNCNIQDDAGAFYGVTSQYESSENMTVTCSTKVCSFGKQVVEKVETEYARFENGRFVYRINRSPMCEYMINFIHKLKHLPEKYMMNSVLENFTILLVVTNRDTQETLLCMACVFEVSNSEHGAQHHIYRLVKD
Decision: IC50 beneath 3 µM gives t; IC50 meeting or exceeding 3 µM gives f.

>>> discrete_label("CN(/N=C/c1ccc2c(c1)n(C1CCC1)c(=O)n2COC(=O)C(C)(C)C)C1=NS(=O)(=O)c2ccccc21")
"f"
>>> discrete_label("CCCOc1cc(/C=N/N(C)C2=NS(=O)(=O)c3ccccc32)ccc1F")
"t"
>>> discrete_label("CC(C)n1c(=O)[nH]c2ccc(/C=N/N(C)C3=NS(=O)(=O)c4ccccc43)cc21")
"t"
>>> discrete_label("COc1cc(/C=N/N(C)C2=NS(=O)(=O)c3cc(B4OC(=O)CN(C)CC(=O)O4)ccc32)ccc1F")
"f"
>>> discrete_label("CN(/N=C/c1cnc(-c2ccccc2)s1)C1=NS(=O)(=O)c2ccccc21")
"f"
>>> discrete_label("CCn1c(=O)[nH]c2ccc(/C=N/N(CC(C)C)C3=NS(=O)(=O)c4cc(B(O)O)ccc43)cc21")
"t"
>>> discrete_label("COc1cc(/C=N/N(CC(C)C)C2=NS(=O)(=O)c3ccc(B(O)O)cc32)ccc1F")
"f"
>>> discrete_label("CC(C)CN(/N=C/c1ccc2[nH]c(=O)n(C)c2c1)C1=NS(=O)(=O)c2cc(B(O)O)ccc21")
"f"
>>> discrete_label("COc1cc(/C=N/N(CC(C)C)C2=NS(=O)(=O)c3cc(OCB(O)O)ccc32)ccc1F")
"t"
>>> discrete_label("CCOc1cc(/C=N/N(C)C2=NS(=O)(=O)c3ccccc32)ccc1F")
"t"

----------
MEASURED PROPERTY: melting point

>>> result("COc1cc(/C=N/N(CCc2ccccc2)C2=NS(=O)(=O)c3ccccc32)ccc1F")
"256 to 258 °C"
>>> result("CN(/N=C/c1cnc(N2CCOCC2)s1)C1=NS(=O)(=O)c2ccccc21")
"281 to 300 °C"
>>> result("CN(/N=C/c1ccc2c(c1)C(C)(C)NC2=O)C1=NS(=O)(=O)c2ccccc21")
"> 295 °C"
>>> result("CN(/N=C/c1ccc(F)c(OC(F)(F)F)c1)C1=NS(=O)(=O)c2ccccc21")
"230 to 280 °C"

----------
target: YAP-TEAD interaction (full length human TEAD1-Gal4 fusion, full length YAP mutant S127A, S397A) (UniProt P04386+P28347); construct: The TEAD1 construct was prepared by cloning the full length human TEAD1 cDNA; expressed in transfected cells; host or cells: HEK293 GripTite 293 MSR (Invitrogen R795-07), transiently transfected with pSG5_CMV plasmids; test: Cell-based TEAD-GAL4 transactivation assay (luciferase reporter, HEK293); conditions: HEK293 cells, compounds 0.1 μM to 30 μM, 24 h, concentration that inhibited the luciferase activity by 50%
Please assign label 0 whenever IC50 is at or above 3 µM, and label 1 whenever it is below.

>>> discrete_label("CCCC(=O)OCn1c(=O)n(C2CCC2)c2cc(/C=N/N(C)C3=NS(=O)(=O)c4ccccc43)ccc21")
"label 0"
>>> discrete_label("COc1cc(/C=N/N(C)C2=NS(=O)(=O)c3ccc([N+](=O)[O-])cc32)ccc1F")
"label 0"
>>> discrete_label("CCC1(CC)C(=O)Nc2ccc(/C=N/N(CC(C)C)C3=NS(=O)(=O)c4cc(OC(C)C)ccc43)cc21")
"label 0"
>>> discrete_label("COc1cc(/C=N/N(CC(C)C)C2=NS(=O)(=O)c3cc(B(O)O)ccc32)ccc1F")
"label 1"
>>> discrete_label("COc1cc(/C=N/N(C)C2=NS(=O)(=O)c3ccc(OCC(=O)N(C)C)cc32)ccc1F")
"label 0"
>>> discrete_label("CCOCn1c(=O)n(C2CCC2)c2cc(/C=N/N(C)C3=NS(=O)(=O)c4ccccc43)ccc21")
"label 0"
>>> discrete_label("CSc1cc(/C=N/N(C)C2=NS(=O)(=O)c3ccccc32)ccc1F")
"label 1"
>>> discrete_label("CNC(=O)COc1ccc2c(c1)C(N(CC(C)C)/N=C/c1ccc(F)c(OC)c1)=NS2(=O)=O")
"label 0"

Where these numbers come from: patent US20200115353A1
